Reported TGI values are given for each entry in this list.
- Test system: MCF7 breast
- PROCEDURE SUMMARY: NCI tumour cell line growth inhibition, 48 h
State the answer as a number, implicitly in µM.

CN1CCN(CN2C(=O)C3C4C=CC(C3C2=O)C2C(=O)N(CN3CCN(C)CC3)C(=O)C42)CC1 (stereo not given): 72.8

Can you look up the measured TGI of "C[C@@]12CCC3C1C=C1C(=O)c4cc(O)ccc4C(=O)[C@]1(O2)[C@@]3(C)C=O" for me? 11.6

###

- Test system: MCF7 breast
- PROCEDURE SUMMARY: NCI tumour cell line growth inhibition, 48 h
Reported TGI values are given for each entry in this list.

Worked cases, TGI given:
CC(=O)c1cc2c(o1)C(=O)c1ccccc1C2=O: 0.394 µM
COc1ccc(-c2c(C#N)c(O)n(NS(=O)(=O)c3ccc(C)cc3)c(=O)c2C#N)cc1: > 100 µM
Cn1c(N)c2c3c(sc2nc1=O)CCCC3: > 75 µM
O=C1C[C@H]2[C@@H](O1)[C@@H](O)CN1C(=O)c3ccccc3[C@H]21: > 100 µM

Can you look up the measured TGI of "CCCNC(=S)/N=C/c1c(O)c2ccccc2[nH]c1=O" for me? > 100 µM

Can you look up the measured TGI of COc1ccc(C(OC(C)=O)C2C(=C(C#N)C#N)c3ccccc3C2=C(C#N)C#N)cc1 (stereo unspecified) for me? > 100 µM

Can you look up the measured TGI of "COC(=O)C1(OC(=O)Sc2ccccc2)CCN(C)CC1" for me? > 100 µM

Can you look up the measured TGI of "S=c1[nH]n2c(COc3cccc(OCc4nnc5sc(=S)[nH]n45)c3)nnc2s1" for me? > 100 µM

Can you look up the measured TGI of "CCCCCCNC(=O)c1nc(-c2ccccc2)oc1Cc1ccc(OP(=O)(O)O)cc1" for me? 29.9 µM

Can you look up the measured TGI of "Cc1ccc(/C=C/c2c(C(=O)/C=C/c3ccc(C(F)(F)F)cc3)c(C)nc3ccccc23)cc1" for me? 2.3 µM

Can you look up the measured TGI of "O=C1/C(=C/c2ccccc2)NC(=S)N1CN1CCOCC1" for me? > 100 µM

###

Reported TGI values are given for each entry in this list.
- Tested on: OVCAR-5 ovarian
- PROCEDURE SUMMARY: NCI tumour cell line growth inhibition, 48 h

COc1ccc(N2C(=O)CS(=O)(=O)C2c2cccc(Oc3ccccc3)c2)cc1 (stereo not given): > 100 µM
Cc1ccc(C(=O)N/N=C(\N=Nc2ccccc2[N+](=O)[O-])c2ccc(N(C)C)cc2)cc1: > 100 µM
CCOC(=O)C1=C(N)Oc2ccc(Br)cc2C1C(C#N)C(=O)OCC (stereo not given): 66.3 µM

Can you look up the measured TGI of "C[C@@]12CCC3C1C=C1C(=O)c4cc(O)ccc4C(=O)[C@]1(O2)[C@@]3(C)C=O" for me? 26.3 µM

Can you look up the measured TGI of Cc1ccc(NC(=O)C2C(=O)N(c3ccc(C)c(C)c3)C(=O)C2N=N)cc1C (stereo not given) for me? > 100 µM

Can you look up the measured TGI of "CCOC(=O)c1ccc(C(=O)/C(C#N)=C2\CCCN2C)[nH]1" for me? > 100 µM

Can you look up the measured TGI of CCCCn1c(C)c2c(c1C)C(=O)N(CC(O)CN1CCc3ccccc3C1)C2=O (stereo not given) for me? > 100 µM

Can you look up the measured TGI of "O=C(NC(=O)c1cn(CCNCCO)c(=O)[nH]c1=O)OCc1ccccc1" for me? > 100 µM

Can you look up the measured TGI of "N#Cc1c(-c2ccc(F)cc2)c(-c2ccc(F)cc2)nn(CCO)c1=O" for me? > 100 µM

Can you look up the measured TGI of "CC(/C=N\NC(=S)N1CCCCC1)=N/NC(=S)N1CCCCC1" for me? 21.8 µM
